pIC50: −log10 of the molar value.
Entries below carry reported pIC50 on human DHFR (hDHFR) (Homo sapiens (Human), UniProt P00374).
Sequence (P00374 whole entry): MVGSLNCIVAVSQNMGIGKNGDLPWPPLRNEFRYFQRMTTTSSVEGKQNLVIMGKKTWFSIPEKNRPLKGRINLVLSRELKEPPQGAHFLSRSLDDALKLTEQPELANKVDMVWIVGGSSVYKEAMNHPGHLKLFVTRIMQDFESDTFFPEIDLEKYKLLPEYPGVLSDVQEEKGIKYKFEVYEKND
Measured quantity: pIC50

| Chemical string | Measured quantity | Endpoint result |
| --- | --- | --- |
| COc1ccccc1Sc1c(C)c2c(N)nc(N)nc2n1C | pIC50 | 5.85 |
| COc1ccc(Sc2sc3nc(N)nc(N)c3c2C)cc1 | pIC50 | 6.01 |
| CSc1ccc(N(C)c2nc(C)nc(N)c2Cl)cc1 | pIC50 | 5.16 |
| COc1cccc(Sc2c(C)c3c(N)nc(N)nc3n2C)c1 | pIC50 | 5.72 |

// data source = patent US11111252B2
